system: SNU-398; assay: Induction of apoptosis in human SNU398 cells assessed as caspase activation by HTS assay; format: functional, cell-based
measured quantity: log10 EC50 (log10 of the value in nM)
The base-10 logarithm of EC50, taken with EC50 in nM, is what appears here.

Task: Fill: log10 EC50 (SNU-398) for this molecule "COc1cccc(C(=O)c2ccc(N(C)C)c3ccccc23)c1"
Result: 3.54

Task: Enter measured log10 EC50, system SNU-398, for the molecule shown: "COc1cc(OC)cc(C(=O)c2ccc(N(C)C)c3ccccc23)c1"
Result: 3.18

Task: Provide log10 EC50, system SNU-398, entry COc1ccc(C(O)c2ccc(N(C)C)c3ccccc23)cc1 (stereo unspecified)
Result: 2.23

Task: Quote log10 EC50 with test system SNU-398 for "COc1ccc(N(C)c2ccc(N(C)C)c3ccccc23)cc1"
Result: 2.86

Task: Report its log10 EC50 with SNU-398 as the test system: "COc1ccc(C(=O)c2ccc(N(C)C)cc2)c2ccccc12"
Result: 2.99

Task: Give log10 EC50 for this entry on SNU-398: "COc1cc(C(=O)c2ccc(N(C)C)c3ccccc23)cc(OC)c1OC"
Result: 2.76
